assay: Plasma pharmacokinetics, part A; format: in vivo, human; conditions: human, in vivo, po, 5 mg
reported_property: Tmax
# do not omit the unit; it follows the number

Data request, read-out Tmax, for C=CC(=O)N1CCC[C@@H](n2c(=O)n(-c3ccc(Oc4ccccc4)cc3)c3c(N)nccc32)C1 [tolebrutinib]
1 h

* * *

assay: Urine pharmacokinetics, 60 mg cohort part A; format: in vivo, human; settings: human, urine, po, 60 mg
reported_property: CL renal

May I ask what CL renal has been recorded for C=CC(=O)N1CCC[C@@H](n2c(=O)n(-c3ccc(Oc4ccccc4)cc3)c3c(N)nccc32)C1 [tolebrutinib] ?
~5 mL/min

* * *

assay: Plasma pharmacokinetics, part A; assay type: in vivo, human; conditions: human, in vivo, po, 15 mg
reported_property: AUC(0-t) (ng·h/mL)
Give your result in ng·h/mL as a bare value.

What measured AUC(0-t) goes with `C=CC(=O)N1CCC[C@@H](n2c(=O)n(-c3ccc(Oc4ccccc4)cc3)c3c(N)nccc32)C1` ?
3.67

* * *

test: Plasma protein binding by equilibrium dialysis; type: in vitro ADME; settings: human
reported_property: fraction unbound

# query: fraction unbound of entry `C=CC(=O)N1CCC[C@@H](n2c(=O)n(-c3ccc(Oc4ccccc4)cc3)c3c(N)nccc32)C1`
~0.065

* * *

test: Plasma pharmacokinetics, part B; details: human, in vivo, 15 mg, Tmax, MAD 15 mg q.d., Day 10, median (min – max), n = 8
reported_property: Tmax
Write the figure, then the unit, nothing else.

Entry `C=CC(=O)N1CCC[C@@H](n2c(=O)n(-c3ccc(Oc4ccccc4)cc3)c3c(N)nccc32)C1` : reported Tmax = ?
1 h

* * *

assay: Plasma pharmacokinetics, part B; settings: human, in vivo, 15 mg, AUC0‐24, MAD 15 mg q.d., Day 1, mean, n = 8
reported_property: AUC (ng·h/mL)
Number in ng·h/mL, nothing else.

Please report the recorded AUC for `C=CC(=O)N1CCC[C@@H](n2c(=O)n(-c3ccc(Oc4ccccc4)cc3)c3c(N)nccc32)C1` .
3.82

* * *

experiment: Plasma pharmacokinetics, part A; format: in vivo, human; conditions: human, in vivo, po, 30 mg
reported_property: AUC(0-t) (ng·h/mL)
Field: numeric (ng·h/mL). Do not append units.

Requested read-out: AUC(0-t). Entry: C=CC(=O)N1CCC[C@@H](n2c(=O)n(-c3ccc(Oc4ccccc4)cc3)c3c(N)nccc32)C1 [tolebrutinib]
6.04

* * *

assay: Plasma pharmacokinetics, part A; assay type: in vivo, human; conditions: human, in vivo, po, 120 mg, t 1/2, SAD, single oral 120 mg, fasting, mean, n = 6
reported_property: half-life (h)
// units = h; emit number, no label

Endpoint output: half-life of `C=CC(=O)N1CCC[C@@H](n2c(=O)n(-c3ccc(Oc4ccccc4)cc3)c3c(N)nccc32)C1` . Value?
2.18

* * *

test: Plasma pharmacokinetics, part A; assay type: in vivo, human; settings: human, in vivo, po, 30 mg
reported_property: Cmax (ng/mL)
Supply the numeric figure in ng/mL, leaving out any unit text.

For the compound `C=CC(=O)N1CCC[C@@H](n2c(=O)n(-c3ccc(Oc4ccccc4)cc3)c3c(N)nccc32)C1` , what Cmax is on record?
3.12

* * *

assay: Plasma pharmacokinetics, part B; conditions: human, in vivo, 30 mg, Tmax, MAD 30 mg q.d., Day 1, median (min – max), n = 8
reported_property: Tmax
The reply should read as a number followed by its unit.

Please give the measured Tmax for this compound: `C=CC(=O)N1CCC[C@@H](n2c(=O)n(-c3ccc(Oc4ccccc4)cc3)c3c(N)nccc32)C1`
45 min

* * *

assay: Plasma pharmacokinetics, part A; format: in vivo, human; settings: human, in vivo, po, 60 mg
reported_property: Tmax

Query: Tmax; subject: C=CC(=O)N1CCC[C@@H](n2c(=O)n(-c3ccc(Oc4ccccc4)cc3)c3c(N)nccc32)C1 [tolebrutinib]
1.5 h

* * *

test: Plasma pharmacokinetics, part B; settings: human, in vivo, 7.5 mg, t 1/2, MAD 7.5 mg q.d., Day 1, mean, n = 8
reported_property: half-life (h)
Number in h, nothing else.

For `C=CC(=O)N1CCC[C@@H](n2c(=O)n(-c3ccc(Oc4ccccc4)cc3)c3c(N)nccc32)C1` , what is its reported half-life?
1.45

* * *

assay: Plasma pharmacokinetics, part A; type: in vivo, human; settings: human, in vivo, po, 5 mg
reported_property: AUC(0-inf) (ng·h/mL)
Value expressed in ng·h/mL; do not type the unit.

Which AUC(0-inf) is listed for C=CC(=O)N1CCC[C@@H](n2c(=O)n(-c3ccc(Oc4ccccc4)cc3)c3c(N)nccc32)C1 [tolebrutinib] ?
1.39

* * *

assay: Plasma pharmacokinetics, part B; details: human, in vivo, 7.5 mg, Tmax, MAD 7.5 mg q.d., Day 1, median (min – max), n = 8
reported_property: Tmax (h)
Number in h, nothing else.

# get_value(readout='Tmax', item= `C=CC(=O)N1CCC[C@@H](n2c(=O)n(-c3ccc(Oc4ccccc4)cc3)c3c(N)nccc32)C1` )
1

* * *

experiment: Plasma pharmacokinetics, part B; settings: human, in vivo, 60 mg, AUC0‐24, MAD 60 mg q.d., Day 10, mean, n = 8
reported_property: AUC
Form entry: enter the amount, then its unit.

AUC lookup needed for C=CC(=O)N1CCC[C@@H](n2c(=O)n(-c3ccc(Oc4ccccc4)cc3)c3c(N)nccc32)C1 [tolebrutinib] , thanks.
18.2 ng·h/mL

* * *

experiment: Plasma pharmacokinetics, part B; settings: human, in vivo, 30 mg, Tmax, MAD 30 mg q.d., Day 10, median (min – max), n = 8
reported_property: Tmax
Please report the result as a number followed by the unit.

Given C=CC(=O)N1CCC[C@@H](n2c(=O)n(-c3ccc(Oc4ccccc4)cc3)c3c(N)nccc32)C1 [tolebrutinib] , state its recorded Tmax.
1 h

* * *

test: Plasma pharmacokinetics, part B; settings: human, in vivo, 30 mg, Cmax, MAD 30 mg q.d., Day 10, mean, n = 8
reported_property: Cmax (ng/mL)
The reply should contain only the number, in ng/mL.

Need Cmax of `C=CC(=O)N1CCC[C@@H](n2c(=O)n(-c3ccc(Oc4ccccc4)cc3)c3c(N)nccc32)C1` , thanks.
7.46

* * *

experiment: Plasma pharmacokinetics, part B; conditions: human, in vivo, 30 mg, AUC0‐24, MAD 30 mg q.d., Day 10, mean, n = 8
reported_property: AUC (ng·h/mL)
Numeric only. Scale: ng·h/mL

I would be grateful if you could share the reported AUC for `C=CC(=O)N1CCC[C@@H](n2c(=O)n(-c3ccc(Oc4ccccc4)cc3)c3c(N)nccc32)C1` .
14.9

* * *

experiment: Plasma pharmacokinetics, part B; conditions: human, in vivo, 90 mg, t 1/2, MAD 90 mg q.d., Day 10, mean, n = 8
reported_property: half-life (h)
Give the value in h but do not write h after it.

# query: half-life of entry C=CC(=O)N1CCC[C@@H](n2c(=O)n(-c3ccc(Oc4ccccc4)cc3)c3c(N)nccc32)C1 [tolebrutinib]
2.83

* * *

assay: Plasma pharmacokinetics, part B; settings: human, in vivo, 60 mg, AUC0‐24, MAD 60 mg q.d., Day 1, mean, n = 8
reported_property: AUC (ng·h/mL)
Could you give me the number in ng·h/mL? Just the number is fine.

Can you look up the measured AUC of C=CC(=O)N1CCC[C@@H](n2c(=O)n(-c3ccc(Oc4ccccc4)cc3)c3c(N)nccc32)C1 [tolebrutinib] for me?
24.3

* * *

test: Plasma pharmacokinetics, part A; assay type: in vivo, human; details: human, in vivo, po, 60 mg
reported_property: AUC(0-inf) (ng·h/mL)
Entry rule: numbers only, all in ng·h/mL.

Sample `C=CC(=O)N1CCC[C@@H](n2c(=O)n(-c3ccc(Oc4ccccc4)cc3)c3c(N)nccc32)C1` — what was its AUC(0-inf)?
15.9

* * *

assay: Plasma pharmacokinetics, part A; type: in vivo, human; conditions: human, in vivo, po, 30 mg
reported_property: AUC(0-inf) (ng·h/mL)
Give the quantity in ng·h/mL, number only.

Name the reported AUC(0-inf) value associated with the compound `C=CC(=O)N1CCC[C@@H](n2c(=O)n(-c3ccc(Oc4ccccc4)cc3)c3c(N)nccc32)C1`
6.46

* * *

experiment: Plasma pharmacokinetics, part B; conditions: human, in vivo, 60 mg, Cmax, MAD 60 mg q.d., Day 1, mean, n = 8
reported_property: Cmax (ng/mL)
Numbers only; they are read as ng/mL.

Sample `C=CC(=O)N1CCC[C@@H](n2c(=O)n(-c3ccc(Oc4ccccc4)cc3)c3c(N)nccc32)C1` — what was its Cmax?
8.47

* * *

assay: Plasma pharmacokinetics, part A; format: in vivo, human; conditions: human, in vivo, po, 60 mg, t 1/2, SAD, single oral 60 mg, fasting, mean, n = 6
reported_property: half-life

What measured half-life goes with C=CC(=O)N1CCC[C@@H](n2c(=O)n(-c3ccc(Oc4ccccc4)cc3)c3c(N)nccc32)C1 [tolebrutinib] ?
1.67 h

Values were extracted from paper PMC8841436.
